# settings: in toluene, 308.15 K
measure name: solubility (mole fraction)
Response field accepts a number only; no unit should be typed.

// query solubility (mole fraction) value for entry CCCSc1nc(N[C@@H]2C[C@H]2c2ccc(F)c(F)c2)c2nnn([C@@H]3C[C@H](OCCO)[C@@H](O)[C@H]3O)c2n1 0.00016

* * *

# settings: in isobutanol, 298.15 K
measure name: solubility (mole fraction)
Response field accepts a number only; no unit should be typed.

// query solubility (mole fraction) value for entry CCCSc1nc(N[C@@H]2C[C@H]2c2ccc(F)c(F)c2)c2nnn([C@@H]3C[C@H](OCCO)[C@@H](O)[C@H]3O)c2n1 0.00324
